# assayed target: T1, BMPRIb receptor-Fc fusion (UniProt O00238 14-126)
# T1 construct: BMP receptor-Fc fusion used at 5 ug/mL; also called ALK-6
# T1 sequence (looked up): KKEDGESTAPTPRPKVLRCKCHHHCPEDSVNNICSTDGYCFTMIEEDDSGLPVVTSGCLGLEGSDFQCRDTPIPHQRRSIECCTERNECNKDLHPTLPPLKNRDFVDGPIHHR
# procedure details: ELISA-like plate assay, captured BMP-7 from conditioned media, receptor-Fc detection
value kind: BMPRIb binding (relative to wild type = 1.0)

Given the binder BMP-7 variant Y44T (ligand, In conditioned media; numbering on mature BMP-7) STGGKQRSQNRSKTPKNQEALRMASVAENSSSDQRQACKKHELTVSFRDLGWQDWIIAPEGYAAYYCEGECAFPLNSYMNATNHAIVQTLVHFINPETVPKPCCAPTQLNAISVLYFDDSSNVILKKYRNMVVRACGCH , what is its reported BMPRIb binding (relative to wild type = 1.0)?
1.33 relative to wild type

Next:
Given the binder BMP-7 variant L115A (ligand, In conditioned media; numbering on mature BMP-7) STGGKQRSQNRSKTPKNQEALRMASVAENSSSDQRQACKKHELYVSFRDLGWQDWIIAPEGYAAYYCEGECAFPLNSYMNATNHAIVQTLVHFINPETVPKPCCAPTQLNAISVAYFDDSSNVILKKYRNMVVRACGCH , what is its reported BMPRIb binding (relative to wild type = 1.0)?
0.17 relative to wild type
